assay: Human HepG2 cell viability assay in 384 well format; format: toxicity, cell-based; parameters: dose 125 nL, time 70.5 hour; concentration not given beside the values; conditions: HepG2 cells, read-out: Inhibition
measured parameter: cytotoxicity at 70.5 h (%)
Use % as the unit, but write only the number.

Req: Please look up its cytotoxicity at 70.5 h: CC(C)c1noc(-c2ccc(NC(=O)NCC(O)C(C)C)cc2)n1 (stereo unspecified)
Resp: -7.09

Req: Requested read-out: cytotoxicity at 70.5 h. Entry: Cc1noc(CN(Cc2cccc(C#N)c2)Cc2cccs2)n1
Resp: 0.497

Req: Give the measured cytotoxicity at 70.5 h of OC(CNc1ncnc2c1CCNCC2)C(F)(F)F (stereo unspecified) .
Resp: -4.22

Req: So what's the measured cytotoxicity at 70.5 h for this one? COc1ccc(OC)c(CN(C)c2nc3c(cnn3C)c(=O)[nH]2)c1
Resp: 42.4

Req: Dear colleague, I am looking for the recorded cytotoxicity at 70.5 h of the following molecule: Cc1cc(C)c(CNC(=O)NCc2cc(F)cc(F)c2)c(=O)[nH]1
Resp: -3.54

Req: Field request: cytotoxicity at 70.5 h | item: C=C(C)CN1CCC(NC(=O)Nc2cc(C(N)=O)ccc2OC)CC1
Resp: -2.27

====

experiment: Human HepG2 cell viability assay in 384 well format; assay type: toxicity, cell-based; parameters: dose 125 nL, time 70.5 hour; concentration not given beside the values; details: HepG2 cells, read-out: Inhibition
measured parameter: cytotoxicity at 70.5 h (%)
Output spec: scalar in %, unitless text.

Req: Could you tell me which cytotoxicity at 70.5 h is on file for Cc1c[nH]nc1C1CCCN1Cc1ccncc1 (configuration not stated) ?
Resp: -4.73

Req: Report cytotoxicity at 70.5 h for O=C(c1cnc(-c2ncccn2)s1)N1CCCC(n2cccn2)C1 (configuration not stated) please.
Resp: -10.1

Req: Could you tell me which cytotoxicity at 70.5 h is on file for COc1cccc(CNC(=O)CC2CSc3ncc(C)c(=O)n32)c1 (configuration not stated) ?
Resp: 10.1

Req: Look at this compound and give its reported cytotoxicity at 70.5 h. CCC(Nc1nccc(C2CCCC2)n1)c1ccccn1 (configuration not stated)
Resp: -3.14

Req: Need cytotoxicity at 70.5 h of Cc1cc(CN(C)C2CCCN(Cc3noc(C)n3)C2)no1 (configuration not stated) , thanks.
Resp: 7.31

Req: Given the entry CC(NC(=O)c1cccs1)(C(N)=O)c1cccc(C(F)(F)F)c1 (configuration not stated) , report its measured cytotoxicity at 70.5 h.
Resp: -101

Req: Query (compound): Cc1cccnc1CN1CCN(C[C@]2(O)CCCN3CCCC[C@@H]32)CC1 ; field requested: cytotoxicity at 70.5 h
Resp: -6.65

Req: // cytotoxicity at 70.5 h lookup, key: CCN1CCC2(CCC1=O)CN(c1nccc(N)n1)CCN2C (configuration not stated)
Resp: -4.72

Req: Can you share its cytotoxicity at 70.5 h? I mean this compound: CCC(=O)NCC(=O)NCC1CCN(c2cc(Cl)ccc2C)C1 (configuration not stated)
Resp: -1.96

Req: Recorded cytotoxicity at 70.5 h for Cc1cc(CN(C)C(=O)c2ccc(OC(C)C)nc2)no1 , please?
Resp: 20

Req: Requested field: cytotoxicity at 70.5 h. Item: N#Cc1cccnc1NCc1cccnc1N1CCCCC1
Resp: 4.49

Req: Which cytotoxicity at 70.5 h is listed for CC(C(=O)NCc1ccc2c(c1)OCCO2)n1cncn1 (configuration not stated) ?
Resp: 31.8

====

test: Human HepG2 cell viability assay in 384 well format; assay type: toxicity, cell-based; parameters: dose 125 nL, time 70.5 hour; concentration not given beside the values; conditions: HepG2 cells, read-out: Inhibition
What cytotoxicity at 70.5 h was measured for each of the following?
Response body: numeric value in %, unit text excluded.

Req: Which cytotoxicity at 70.5 h value is on record for CN(C)C(C(=O)NCc1cc(C(C)(C)C)n[nH]1)c1ccc(F)cc1 (centres undefined) ?
Resp: -4.44

Req: Which cytotoxicity at 70.5 h value is on record for COCCNc1cc(-c2ccccc2CCN)c2cc[nH]c2n1 ?
Resp: -2.8

Req: Quick check: cytotoxicity at 70.5 h of CCC(CNC(=O)Cn1ccnc1)Oc1cccc(F)c1 (centres undefined) ?
Resp: 21.1

Req: Query (compound): COc1ccc2nc(CNC(=O)c3cc(C(C)C)on3)[nH]c2c1 ; field requested: cytotoxicity at 70.5 h
Resp: -14.8

Req: Please give the measured cytotoxicity at 70.5 h for this compound: CN(CC(F)(F)F)C(=O)Cn1cc(NC(=O)C(C)(C)C)cn1
Resp: 3.96

Req: Name the recorded cytotoxicity at 70.5 h for O=C(Cc1ccsc1)N1C[C@@H]2COC[C@]2(COCc2cccnc2)C1 .
Resp: -0.0283

Req: Item under review: Cc1cc(C)n(CC(C)Nc2ncnc3c2CCNC3)n1 (centres undefined) . Reported cytotoxicity at 70.5 h?
Resp: -11.9

Req: Looking for the measured cytotoxicity at 70.5 h of CC(C)Oc1ncccc1CNC(=O)N1CCC(n2cccc2)CC1 , can you help?
Resp: -0.649

Req: Given Cc1noc(C)c1CN1CCc2ncc(CN(C)C)n2CC1 , state its recorded cytotoxicity at 70.5 h.
Resp: -8.78

Req: For the compound CS(=O)(=O)C1CCN(S(=O)(=O)c2ccc(F)c(F)c2)CC1 , what cytotoxicity at 70.5 h is on record?
Resp: 1.4

Req: Need cytotoxicity at 70.5 h, item CC(=O)NCCNC(=O)c1cnc2c(c1)nc(-c1ccccc1Cl)n2C
Resp: -6

Req: Can you share its cytotoxicity at 70.5 h? I mean this compound: CN(Cc1cc[nH]n1)C(=O)c1cn(Cc2c(F)cccc2F)nn1
Resp: -8.9

Req: Sample Cc1cc(CN(C)Cc2ncc(-c3ccccc3)o2)no1 — what was its cytotoxicity at 70.5 h?
Resp: -0.145

Req: Dear colleague, I am looking for the recorded cytotoxicity at 70.5 h of the following compound: CNc1cncc(C2CCCN2Cc2cccc(C)n2)n1 (centres undefined)
Resp: -6.12

Req: Suppose we examine the compound O=C1N(Cc2ccc(F)c(F)c2)CCCC1(O)CNCc1cccnc1 (centres undefined) ; what cytotoxicity at 70.5 h value has been reported?
Resp: -4.19

Req: Field request: cytotoxicity at 70.5 h | item: CCC(C)NS(=O)(=O)c1ccc(C(=O)NC2(C#N)CCC2)cc1 (centres undefined)
Resp: 39.3

Req: Which cytotoxicity at 70.5 h is reported for this compound? Cc1oc(C)c(C(=O)NCc2ccccn2)c1C
Resp: -6.3

Req: So what's the measured cytotoxicity at 70.5 h for this one? Cn1cc(NC(=O)N2CCCC2c2cccnc2)ccc1=O (centres undefined)
Resp: -3.14

Req: Tell me the measured cytotoxicity at 70.5 h of NC(=O)CSc1nnc2[nH]c(=O)c3c(n12)CCCC3 , please.
Resp: -12.6

Req: Any idea what cytotoxicity at 70.5 h was measured for Cc1cccc(CSc2ncc(Cl)c(C(=O)O)n2)c1 ?
Resp: -11

Req: Quick check: cytotoxicity at 70.5 h of N#CCCn1nc(C(F)(F)F)c2c1CCCC2 ?
Resp: -6.63

Req: Fill in the blank: the reported cytotoxicity at 70.5 h of NS(=O)(=O)c1ccc(NCc2ccccc2F)cc1C(F)(F)F is ____.
Resp: 1.33

Req: Which measured cytotoxicity at 70.5 h value corresponds to Cc1ccc(CN2CCc3ncc(CNC(=O)C4CCC4)n3CC2)o1 ?
Resp: -2.7

Req: // cytotoxicity at 70.5 h lookup, key: O=c1ccc2c(n1Cc1cccnc1)CCN(Cc1ccoc1)CC2
Resp: 4.28

====

Give measured cytotoxicity at 70.5 h for each item. Keep answers brief.
assay: Human HepG2 cell viability assay in 384 well format; assay type: toxicity, cell-based; set-up: dose 125 nL, time 70.5 hour; concentration not given beside the values; conditions: HepG2 cells, read-out: Inhibition
Answer with a number only, understood to be in %.

Req: Recorded cytotoxicity at 70.5 h for Cc1csc([C@H]2C[C@@H]3CCN(C(=O)c4ccnnc4)C[C@H]3O2)n1 , please?
Resp: -1.58

Req: Which cytotoxicity at 70.5 h is reported for this molecule? CCC(C)c1cc(C(=O)N(CC(=O)NC)c2cccc(F)c2)on1 (stereo unspecified)
Resp: 20.8

Req: Can you share its cytotoxicity at 70.5 h? I mean this molecule: COCCC1CCN([C@@H]2c3ccccc3C3(CCNCC3)[C@H]2O)CC1
Resp: -3.9

Req: GET /values?readout=cytotoxicity at 70.5 h&item= COCCn1ccc2c(C(=O)NC3CN4CCC3CC4)cccc21 (stereo unspecified)
Resp: -20.8

Req: Param item = CO[C@@H]1CCN(Cc2ccoc2)[C@@H]2CN(Cc3ccco3)C[C@@H]21 ; retrieve measured cytotoxicity at 70.5 h.
Resp: -5.98

Req: State the recorded cytotoxicity at 70.5 h for this entry: Cc1nc(C)n(C2CCCN(C(=O)c3ccc4[nH]nnc4c3)C2)n1 (stereo unspecified)
Resp: 0.449

Req: Fill in the blank: the reported cytotoxicity at 70.5 h of COC1CCN(C(=O)c2ccc3ncsc3c2)CC1 is ____.
Resp: -2.33

Req: Look up cytotoxicity at 70.5 h: COCCN1CC[C@@H]2O[C@H](COCc3csc(C)n3)CC[C@@H]21
Resp: -15.2

Req: Which cytotoxicity at 70.5 h is listed for CCc1nnc(Nc2cccc(C3CCN(c4cnccn4)CC3)n2)s1 ?
Resp: 14.7

Req: Looking for the measured cytotoxicity at 70.5 h of Cn1nc(C2CCCN(Cc3cc(F)cc(F)c3)C2)c2nccnc21 (stereo unspecified) , can you help?
Resp: -1.82

Req: Fill in the blank: the reported cytotoxicity at 70.5 h of CCN(C(=O)COC)C(c1ccc(Cl)cc1)c1ccccn1 (stereo unspecified) is ____.
Resp: -21.9
